- assay details: Solubility measurement (DMSO solution method), McIlvaine buffer pH 4.5 or 6.8
- Format: physicochemical
- test parameters: aqueous buffer, kinetic from dmso stock; McIlvaine buffer pH 4.5; DMSO stock diluted to 250 μM; 24 h shaking at ambient temperature; read-out: solubility pH 4.5
quantity: solubility at 24 h

Below, each entry is followed by its recorded solubility at 24 h result.
>>> test_value("C[C@H](Oc1nc(-c2noc3c2CCC[C@@]32CCCc3sc(N)c(C#N)c32)nc(N2CCN(C)C3(CC3)C2)c1Cl)[C@@H]1C[C@@H](F)CN1C")
"> 140 µg/mL"
>>> test_value("C[C@H](Oc1cc(-n2cc(-c3cncs3)nn2)nc(-c2noc3c2CCC[C@@]32CCCc3sc(N)c(C#N)c32)n1)[C@@H]1CCCN1C")
"< 1 µg/mL"

Proceed to the following item.
Given C[C@H](Oc1cc(-n2ccc(C#N)n2)nc(-c2noc3c2CCC[C@@]32CCCc3sc(N)c(C#N)c32)n1)[C@@H]1CCCN1C , state its recorded solubility at 24 h. 24 µg/mL

====

- assay details: Metabolic (microsomal) stability assay, human liver microsomes (HLM)
- Type: in vitro ADME
- test parameters: predicted clearance as percent of liver blood flow, 1 μM
quantity: HLM QH (%)

Below, each entry is followed by its recorded HLM QH result.
>>> test_value("CO[C@@H]1C[C@@H]([C@H](C)Oc2cc(-c3ccn(C)n3)nc(-c3noc4c3CCC[C@@]43CCCc4sc(N)c(C#N)c43)n2)N(C)C1")
46
>>> test_value("C[C@H](Oc1nc(-c2onc3c2CCC[C@@]32CCCc3sc(N)c(C#N)c32)cc(N2CCNC3(CC3)C2)n1)[C@@H]1CCCN1C")
44
>>> test_value("C[C@H](Oc1cc(-c2cnn(C)n2)nc(-c2noc3c2CCC[C@@]32CCCc3sc(N)c(C#N)c32)n1)[C@@H]1C[C@@H](F)CN1C")
51

1. CO[C@@H]1C[C@@H]([C@H](C)Oc2cc(-c3cnn(C)n3)nc(-c3noc4c3CCC[C@@]43CCCc4sc(N)c(C#N)c43)n2)N(C)C1
2. C[C@H](NC(=O)c1ccn(-c2cc(O[C@@H](C)[C@@H]3CCCN3C)nc(-c3noc4c3CCC[C@@]43CCCc4sc(N)c(C#N)c43)n2)n1)c1ccccn1
Please choose the item with the lower HLM QH value from this pair: 1 and 2 # answer = label of selected item 2
(2: 32%, 1: 58%)

====

- target desc: KRAS (G12C)::SOS1 (Homo sapiens (Human), UniProt P01116, C118S/C51S/C80L/G12C)
- Sequence (P01116 other isoform, or with tags, fused parts or gaps G12C/C51S/C80L/C118S): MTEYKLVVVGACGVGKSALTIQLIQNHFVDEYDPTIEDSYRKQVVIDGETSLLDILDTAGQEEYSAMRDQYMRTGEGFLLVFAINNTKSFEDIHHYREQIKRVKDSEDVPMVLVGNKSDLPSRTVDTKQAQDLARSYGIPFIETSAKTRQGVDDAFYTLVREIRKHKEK
- assay details: KRAS::SOS1 AlphaScreen binding assay, KRAS G12C
quantity: IC50 (nM)

Below, each entry is followed by its recorded IC50 result.
>>> test_value("CCN1CCN(c2cc(O[C@@H](C)[C@@H]3C[C@@H](F)CN3C)nc(-c3noc4c3CCC[C@@]43CCCc4sc(N)c(C#N)c43)n2)CC12CC2")
21
>>> test_value("C[C@H](Oc1cc(-n2ccc(C3(O)COC3)n2)nc(-c2noc3c2CCC[C@@]32CCCc3sc(N)c(C#N)c32)n1)[C@@H]1CCCN1C")
2
>>> test_value("C[C@H](Oc1cc(-n2cc(Cn3ccnc3)nn2)nc(-c2noc3c2CCC[C@@]32CCCc3sc(N)c(C#N)c32)n1)[C@@H]1CCCN1C")
2
>>> test_value("C[C@H](O)Cn1ccc(-c2cc(O[C@@H](C)[C@@H]3CCCN3C)nc(-c3noc4c3CCC[C@@]43CCCc4sc(N)c(C#N)c43)n2)n1")
1

A. CC(C)NC(=O)Cc1ccn(-c2cc(O[C@@H](C)[C@@H]3CCCN3C)nc(-c3noc4c3CCC[C@@]43CCCc4sc(N)c(C#N)c43)n2)n1
B. C[C@H](Oc1cc(-c2cnn(C)c2)nc(-c2noc3c2CCC[C@@]32CCCc3sc(N)c(C#N)c32)n1)[C@@H]1CCCN1C
Which has the higher IC50, A or B ? # answer = label of selected item B

The reported measurements were obtained from patent US20240174690A1.
